Exercise: state measured koff for each of the binders provided.
target: T1, AAV5 (adeno-associated virus 5, Assembled 60-mer capsid of VP1/VP2/VP3 (nested products of one cap gene), amine-coupled to a CM5 chip; the letters give one VP1 subunit only.); assay: SPR, AAV amine-coupled to CM5 chip
T1 construct: also called adeno-associated virus serotype 5
Numbers only, in s⁻¹.

For each of the binders below, state koff.
1. A4-C5 (bispecific antibody) VQLQESGGGLVQPGGSLRLSCAASGSNFRINTMGWYRQAPGKQRELVATVTRGGSTNYADSVKGRFTISRDNPKNTVYLQMNSLRPEDTAVYYCHVDEVRESSWTTSNLWGQGTQVTVSSGGGGSGGGGSGGGGSVQLQESGGGLVQPGGSLRLSCAASGSNFSINTMGWYRQAPGKQRELVATVTRGGDTNYADSVKGRFTISRDNAKNTVYLQMNSLRPEDTAVYYCHVDEIRESSWTTSNLWGQGTQVTVSSGGGGSGGGGSGGGGSVQLQESGGGLVQPGGSLRLSCAASGSNFRINTMGWYRQAPGKQRELVATVTRGGSTNYADSVKGRFTISRDNPKNTVYLQMNSLRPEDTAVYYCHVDEVRESSWTTSNLWGQGTQVTVSS
2. A4-C9 (bispecific antibody) VQLQESGGGLVQPGGSLRLSCAASGSNFSINTMGWYRQAPGKQRELVATVTRGGDTNYADSVKGRFTISRDNAKNTVYLQMNSLRPEDTAVYYCHVDEIRESSWTTSNLWGQGTQVTVSSGGGGSGGGGSGGGGSVQLQESGGGLVQPGGSLRLSCAASGSNFSINTMGWYRQAPGKQRELVAALTRGGSTNYADSVKGRFTISRDNAKNTVYLQMNSLRPEDTAVYYCHVDEVRESSWTTSNLWGQGTQVTVSSGGGGSGGGGSGGGGSVQLQESGGGLVQPGGSLRLSCAASGSNFRINTMGWYRQAPGKQRELVAPVTRGGSTNYADSVKGRFTISRDNAKNTVYLQMNSLRPEDTAVYYCHVDEVRESSWTTSNLWGQGTQVTVSS
3. A4-C6 (bispecific antibody) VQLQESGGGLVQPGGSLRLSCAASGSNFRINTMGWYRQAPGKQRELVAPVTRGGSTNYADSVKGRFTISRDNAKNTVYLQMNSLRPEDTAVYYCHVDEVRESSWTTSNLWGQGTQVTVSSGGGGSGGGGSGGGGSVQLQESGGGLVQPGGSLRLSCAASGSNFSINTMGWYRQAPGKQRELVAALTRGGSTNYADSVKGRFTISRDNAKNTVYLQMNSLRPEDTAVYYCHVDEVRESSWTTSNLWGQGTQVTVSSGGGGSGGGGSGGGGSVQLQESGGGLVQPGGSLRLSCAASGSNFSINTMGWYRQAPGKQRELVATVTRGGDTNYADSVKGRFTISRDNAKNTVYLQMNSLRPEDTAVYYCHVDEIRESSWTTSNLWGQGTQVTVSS

1. 0.0013
2. 5e-05
3. 0.000139

Recorded koff for A4-B2 (bispecific antibody) VQLQESGGGLVQAGGSLRLSCAASGSRFSINTMGWYRQAPGKQREFVATVTRGGNTNYAESVKGRFTISRDNAKNTVYLQMNSLRPEDTAVYYCHVDEVRDSSWTTSNIWGQGTQVTVSSGGGGSGGGGSGGGGSVQLQESGGGLVQAGGSLRLSCAASGSTFSINTMGWYRQAPGKQRELVATITRGGNTNYADSVKGRFTISRDNAKNTVYLQMNSLRPEDTAVYYCHVDEVRQSSWTTSNLWGQGTQVTVSS , please?
0.00117
